Below, each entry is listed alongside its reported GI50.
Tested on: UACC-62
Assay: NCI tumour cell line growth inhibition, 48 h
The source made the active and inactive calls. Rule as the data show it: active = GI50 up to about 1.1 µM and inactive = higher. Numbered stars: 1 amine (or outer) side, 2 acyl side, 3 side chain; on linkers, the order of the positions; unused ones are H or OH. Bridge positions count the residues as written; N and C are the ends. Square brackets hold non-standard residues; d marks the D form. Peptide text beside a SMILES is read from it. X58 = COc1c(N[*:1])cccc1C(=O)O[C@H](C(=O)[C@H](C)C(=O)[*:2])C(C)C; X57 = CC(C)C[C@H](C(=O)[*:2])C(C)C(=O)C1CCCN1[*:1]; NMeY = CN[C@@H](Cc1ccc(O)cc1)C(=O)O; Lac = C[C@H](O)C(=O)O

[
  {
    "COMPOUND": "O=C(Nc1ccccc1)N(CCCCN(Cc1ccccc1)C(=O)Nc1ccccc1)Cc1ccccc1",
    "GI50": "> 100 µM (inactive)"
  },
  {
    "COMPOUND": "Cn1c2ccccc2c(=O)c2c(O)cc3c(c21)C1OCC(C)(O)C1O3 (stereo not drawn)",
    "GI50": "> 10 µM (inactive)"
  },
  {
    "COMPOUND": "Cc1nnc2sc(Cc3cnc(N)s3)nn12",
    "GI50": "> 100 µM (inactive)"
  },
  {
    "COMPOUND": "O=C1c2cccc3cc([N+](=O)[O-])cc(c23)C(=O)N1Nc1ccc([N+](=O)[O-])cc1[N+](=O)[O-]",
    "GI50": "13.6 µM (inactive)"
  },
  {
    "COMPOUND": "COc1ccc(C[C@H]2C(=O)O[C@H](C)[C@H](NC(=O)[C@@H](CC(C)C)C(C)C(=O)C3CCCN3C(=O)[C@H](C)O)C(=O)Nc3cccc(c3OC)C(=O)O[C@@H](C(C)C)C(=O)[C@H](C)C(=O)N[C@@H](CC(C)C)C(=O)N3CCC[C@H]3C(=O)N2C)cc1 (stereo partly drawn) (H-[Lac][X57]T[X58]LP[NMeY](Me); ester 3-C)",
    "GI50": "> 12.5 µM (inactive)"
  },
  {
    "COMPOUND": "COc1cc(/C=C2/SC(c3ccccc3)N(Cc3ccccc3)C2=O)cc(OC)c1OC (stereo not drawn)",
    "GI50": "42.5 µM (inactive)"
  }
]

Record CCCCCCCCCCCCOC(=S)NC . Reported GI50: 17.1 µM (inactive)

// recorded GI50 for O=C(/C=C/c1ccc(O)c(O)c1)OCCCc1ccccc1 : 9.84 µM (inactive)

---

Test system: SK-OV-3
Assay: NCI tumour cell line growth inhibition, 48 h
Activity calls are given as the source filed them. No stated cut-off is given here; in the data, active = GI50 up to about 1.1 µM and inactive = higher.
READOUT_NAME: GI50

Below, 8 molecules whose answers are already recorded.
[
  {
    "MOLECULE": "COC(C)C(O)(C(=O)OCC1=CCN2CCC(O)C12)C(C)(C)O (stereo not given)",
    "OBS_VALUE": "> 100 µM (inactive)"
  },
  {
    "MOLECULE": "CC(C)(C)[Si](C)(C)OCCOCn1cc(F)c(=O)[nH]c1=O",
    "OBS_VALUE": "> 100 µM (inactive)"
  },
  {
    "MOLECULE": "O=S(=O)(SCc1ccccc1)C(c1ccccc1)c1ccccc1",
    "OBS_VALUE": "> 100 µM (inactive)"
  },
  {
    "MOLECULE": "C/C(=C\\c1ccccc1)C(=O)NCc1ccc(C(=O)NCCc2ccccc2)cc1",
    "OBS_VALUE": "12.2 µM (inactive)"
  },
  {
    "MOLECULE": "O=S(=O)(O)c1cc(/N=N/c2cccc3ccccc23)c(O)c2ncccc12",
    "OBS_VALUE": "> 100 µM (inactive)"
  },
  {
    "MOLECULE": "COc1ccc2c(c1)CCN1C3=C(CCC3)C(=O)C[C@@H]21",
    "OBS_VALUE": "> 100 µM (inactive)"
  },
  {
    "MOLECULE": "O=C(COc1ccc(OCC(=O)N2C(=O)CN(c3ccccc3)C2=S)cc1)N1C(=O)CN(c2ccccc2)C1=S",
    "OBS_VALUE": "> 54.3 µM (inactive)"
  },
  {
    "MOLECULE": "CN1C(=O)[C@](C)(Cc2ccc(F)cc2)N(C(=O)OC(C)(C)C)[C@@H]1C(C)(C)C",
    "OBS_VALUE": "43.9 µM (inactive)"
  }
]

Form field GI50, entry CCCCCCCC/C=C1\CCC(CN(C)C)C1=O (stereo not given) : 17.2 µM (inactive)

// field: GI50; key: O=C(Cn1c2ccc(Br)cc2c2nc3ccccc3nc21)N1CCOCC1 ; value = > 100 µM (inactive)
